Where do these numbers come from? They come from PubChem BioAssay (NCI).

# Tested on: SK-MEL-2 melanoma
# assay_info: NCI-60 one-dose screen, 48 h (100 = growth as untreated, 0 = no growth, -100 = all killed)
# measurement_conditions: 10 µM unless noted
About 83,000 compounds went through this panel and 20% of them were active in at least one assay; those are over-represented in the sample as a whole.
quantity_measured: growth (%)
// return numeric value only (unit: %, not printed)

Problem: Hello, please tell me recorded growth for this one: O=C(O)c1ccc2c3c(ncnc13)-c1ccccc1C2=O
Solution: 88.4

Problem: For the molecule N#Cc1ccc([N+](=O)[O-])o1 , report growth.
Solution: 91

Problem: Return reported growth. Input molecule: C[N+](C)=c1ccc2nc3c(cc(NCCCNc4cc5oc6cc(=[N+](C)C)ccc-6nc5c5ccccc45)c4ccccc43)oc-2c1
Solution: 90.4

Problem: Give growth for the following molecule: NC1=CC(=O)c2ccccc2C1=O
Solution: 88.6

Problem: Tell us which growth value is on record for Nc1ccc(SSc2ccc(N)cc2)cc1
Solution: 91.6

====

Would you kindly list growth for each of these molecules?
# Test system: CAKI-1 renal
# assay_info: NCI-60 one-dose screen, 48 h (100 = growth as untreated, 0 = no growth, -100 = all killed)
# measurement_conditions: 10 µM unless noted
Compounds without any hit were thinned out: in the full panel of roughly 83,000, 20% have a hit. Calls of active or inactive are those of the source. How the source made its calls: active means growth percent below 10; inactive means the rest.

Problem: # return recorded growth for entry NC(=O)/C=C/C(=O)c1c(Cl)cccc1Cl
Solution: -86.9% (active)

Problem: Tell me its growth given O=Nc1ccccc1N=O as the entry.
Solution: 81.1% (inactive)

Problem: Complete the entry with growth for N#CSCc1ccc(CSC#N)c(Cl)c1
Solution: 41.7% (inactive)

Problem: Dear colleague, please send me the reported growth for CC(C)(C)CC(C)(C)c1ccc(OCCSC(=N)N)cc1 when you can.
Solution: 71.3% (inactive)

Problem: Check the records and state growth for CC(=O)ON=C1C=CC(=C(C#N)c2ccccc2)C=C1
Solution: 19.9% (inactive)

Problem: Quick one: give measured growth for CC(C)(C)c1ccc(O)c(C2CCCCC2)c1
Solution: 116% (inactive)

Problem: Entry O=[N+]([O-])c1ccc(N=Nc2ccc(O)cc2O)cc1 needs its growth filled in; supply it.
Solution: 56% (inactive)

Problem: Please indicate growth recorded for COc1cc(NS(C)(=O)=O)ccc1Nc1c2ccccc2nc2ccccc12
Solution: 16.3% [2.5 µM] (inactive)

Problem: Name the recorded growth of the molecule listed here: CN(C)c1ccc(/C=N/N=C(\C#N)[S][Sn]([Cl])([c]2ccccc2)[c]2ccccc2)cc1
Solution: 46.4% (inactive)

Problem: Return reported growth. Input molecule: O=C(Nc1cccc(Br)c1)Oc1ccc(Cl)c2cccnc12
Solution: 47% [100 µM] (inactive)

Problem: Give the reported value of growth for this record: CCCCCCCCCCCCCCCCOP(=O)([O-])OCC[N+](C)(C)C
Solution: 16.5% (inactive)

Problem: Report growth, nothing else, for this molecule: CN(C)c1ccc(C(=C2C=CC(=[N+](C)C)C=C2)c2ccc(N(C)C)cc2)cc1 (tested in a mixture with another compound)
Solution: -43.7% (active)

Problem: Query growth for O=[N+]([O-])c1ccc2c(N=Nc3ccc4ccccc4c3O)c(O)cc(S(=O)(=O)O)c2c1
Solution: 60.1% (inactive)

Problem: // Input: NC1=CC(=O)c2ccccc2C1=O . Output its growth only.
Solution: 91.9% (inactive)

Problem: Give the measured growth for C=C(Cl)C(=NC(C)(C)C)Nc1ccccc1C
Solution: 104% (inactive)

Problem: Query growth for S=C(NCCNC(=S)[S][Sn]([c]1ccccc1)([c]1ccccc1)[c]1ccccc1)[S][Sn]([c]1ccccc1)([c]1ccccc1)[c]1ccccc1
Solution: -71.3% (active)

Problem: Assign growth to the following record: CNC(=O)N/N=C/c1ccc([N+](=O)[O-])o1
Solution: 114% (inactive)

Problem: Could you please provide reported growth for Cc1c2ccccc2c(C)c2c1ccc1ccccc12 ? Thanks!
Solution: 89% (inactive)

Problem: In one line, give reported growth of the entry O=C1C=CC(=O)N1C1c2ccccc2-c2ccccc21 .
Solution: 55.7% (inactive)

Problem: For the molecule O=C1NC(=O)/C(=C/C=C/c2ccccc2)S1 , give its measured growth value.
Solution: 25.5% (inactive)

Problem: Determine from records and report growth for Nc1ccc(SSc2ccc(N)cc2)cc1
Solution: 98.5% (inactive)

Problem: Kindly indicate its recorded growth. Item: Cc1cc(C(C)(CC(C)C)c2ccc(O)c(C)c2)ccc1O
Solution: 73.3% (inactive)

Problem: Annotate the molecule O=C1c2ccccc2C(=O)N1c1ccccc1 with its measured growth.
Solution: 81.3% (inactive)

Problem: For Cc1ccc2c(ccc3c[n+]4c5ccccc5ccc4n32)c1 , write its growth.
Solution: 67.8% (inactive)

Problem: Hello, please tell me recorded growth for this one: O=C1N[C@H]2[C@H](CS[C@H]2CCCCC(=O)N(CCP(c2ccccc2)c2ccccc2)CCP(c2ccccc2)c2ccccc2)N1
Solution: 99.2% (inactive)

Problem: Answer with the recorded growth for the molecule listed here: CNc1ccc2c(c1)c1ccccc1n2C
Solution: 98.9% (inactive)

Problem: Give me measured growth, please, for this molecule: CCN(CC)CC(C)(C)C(=O)/C=C/c1ccc(Cl)c(Cl)c1
Solution: -32.3% (active)

Problem: Input CCCCCCC(C)c1ccccc1O (stereo not given) (tested in a mixture with another compound) , output reported growth.
Solution: 90.1% (inactive)

Problem: Dear colleague, please send me the reported growth for OC(CNc1ccnc2cc(Cl)ccc12)CNc1ccnc2cc(Cl)ccc12 when you can.
Solution: 101% (inactive)

Problem: Identify growth associated with the molecule CCOC(=O)c1c(C)[nH]c(CO)c1C
Solution: 101% (inactive)

Problem: Consider the molecule CCN1/C(=C\c2cc[n+](CC)c3ccccc23)C=Cc2ccccc21 and give its recorded growth.
Solution: 53.9% (inactive)

Problem: Please report growth for the following molecule: CCOC(=O)/C(=C\c1ccc(-c2ccccc2)cc1)C(C)=O
Solution: 98.7% (inactive)

Problem: Complete the entry with growth for N#CC1C(=O)SC2c3ccccc3C(=O)c3ccccc3C12 (stereo not given)
Solution: 88% (inactive)

Problem: Look up and report measured growth for this entry: Oc1c(Br)cc(Cl)cc1C(c1cc(Cl)cc(Br)c1O)C(Cl)(Cl)Cl
Solution: 1.81% (active)

Problem: Give growth for C[N+](C)=c1ccc2nc3c(cc(NCCCNc4cc5oc6cc(=[N+](C)C)ccc-6nc5c5ccccc45)c4ccccc43)oc-2c1
Solution: 53.8% (inactive)

Problem: Supply recorded growth for COC(=O)[C@@]12OC[C@]34[C@H]([C@@H](O)[C@@H]1O)[C@@]1(C)[C@H](O)C(=O)C=C(C)[C@@H]1C[C@H]3OC(=O)C(OC(C)=O)[C@@H]24 (stereo not given in full) here.
Solution: -35.9% (active)

Problem: Indicate the recorded growth value for this molecule: N#Cc1ccc([N+](=O)[O-])o1
Solution: 104% (inactive)

Problem: Tell me its growth given Cc1ccc2nc(C[n+]3ccc4ccccc4c3)ccc2c1 as the entry.
Solution: 98.3% (inactive)

Problem: Let me know recorded growth for N#CSCc1ccc(Cl)c(CSC#N)c1 , thanks.
Solution: 22.5% (inactive)

Problem: State, in one line, measured growth of CC(=O)C(=Cc1ccc(C=C(C(C)=O)C(C)=O)cc1)C(C)=O
Solution: -50.7% (active)

====

# System: SW-620 colon
# assay_info: NCI-60 one-dose screen, 48 h
# measurement_conditions: 10 µM unless noted
This is part of a sample that, as a whole, favours compounds with a hit. Of some 83,000 tested, about 20% had one in any assay. Active and inactive are the calls of the source. The calls were made as follows: active = growth percent below 10; inactive = the rest.
A correct response names exactly one class from active, inactive

Problem: GET /call?item= O=C1c2ccccc2C(=O)c2sc(Nc3cccc(Cl)c3)nc21 returns the recorded outcome of this test.
Solution: active

Problem: For Cc1ccc2c(ccc3c[n+]4c5ccccc5ccc4n32)c1 , what call appears in the results of this test?
Solution: active

Problem: Could you please tell me the result logged for CN(C)CCOc1ccc2c(c1)C(=O)/C(=C\c1ncc([N+](=O)[O-])n1C)C2 in this assay?
Solution: active

Problem: Can you look up the reported call for O=C1C=CC(=O)N1C1c2ccccc2-c2ccccc21 for me?
Solution: inactive

Problem: Please indicate how the test categorized COC(=O)[C@@]12OC[C@]34[C@H]([C@@H](O)[C@@H]1O)[C@@]1(C)[C@H](O)C(=O)C=C(C)[C@@H]1C[C@H]3OC(=O)C(OC(C)=O)[C@@H]24 (stereo partly specified) .
Solution: active

Problem: Field: outcome | Entry: Cn1c2c(c3ccccc31)CCN1C[C@@H]3CCCC[C@H]3C[C@@H]21
Solution: inactive

Problem: Please share the test call associated with N#CSCc1ccc(Cl)c(CSC#N)c1 .
Solution: inactive

Problem: Short answer needed: outcome of this test for CCN(CC)CC(C)(C)C(=O)/C=C/c1ccc(Cl)c(Cl)c1 ?
Solution: active

Problem: # lookup: test call for CC(=O)C(=Cc1ccc(C=C(C(C)=O)C(C)=O)cc1)C(C)=O
Solution: active

Problem: Identify the outcome logged in this assay for the compound shown: O=Nc1ccccc1N=O
Solution: inactive

Problem: Could you please tell me the result logged for C1=C(c2ccccc2)C(c2ccc(OCCN3CCCCC3)cc2)Oc2ccccc21 (stereo unspecified) in this assay?
Solution: inactive

Problem: Lab log entry: C[N+](C)=c1ccc2nc3c(cc(NCCCNc4cc5oc6cc(=[N+](C)C)ccc-6nc5c5ccccc45)c4ccccc43)oc-2c1 — outcome as called in the assay?
Solution: active

Problem: Could you please tell me the result logged for CCC(=O)Sc1ccccc1C(=O)Nc1ccc(Cl)cc1 in this assay?
Solution: inactive

Problem: Could you kindly confirm the outcome this assay logged for COC(=O)c1nc(=S)[nH]c(C(=O)OC)c1C(=O)c1ccc2ccccc2c1 ?
Solution: inactive

Problem: Recorded call for CCC(CC)COC(=O)c1ccc(O)c(O)c1 ?
Solution: inactive

Problem: Tell me the assay call for CN=C(N)N/N=C(\C)c1ccc2c(c1)Cc1cc(/C(C)=N/NC(N)=NC)ccc1-2 please.
Solution: active
